Attribution: ChEMBL document CHEMBL3600285

This section lists pIC50 readings for Alpha-glucosidase MAL12 (Saccharomyces cerevisiae S288c, UniProt P53341).
Scale note: pIC50 = -log10(concentration in M).

Which pIC50 reading was recorded for the molecule CC1(C)[C@@H](O)CC[C@]2(C)C3=C([C@@H](O)C[C@@H]12)[C@]1(C)C(=O)C[C@H]([C@]2(C)CCC(=O)O2)[C@@]1(C)[C@H](O)C3=O ?
4.38

Which pIC50 reading was recorded for the molecule C[C@H](C(=O)O)[C@H]1CC(=O)[C@@]2(C)C3=C(C(=O)C[C@]12C)[C@@]1(C)CCC(=O)C(C)(C)[C@@H]1CC3=O ?
3.84

Which pIC50 reading was recorded for the molecule CC1(C)[C@@H](O)CC[C@]2(C)C3=C([C@@H](O)C[C@@H]12)[C@]1(C)C(=O)C[C@H]([C@]2(C)CCC(=O)O2)[C@@]1(C)C(=O)C3=O ?
4.04
